tested on: SF-295; assay: NCI tumour cell line growth inhibition, 48 h
The source made the active and inactive calls. No stated cut-off is given here; in the data, active = GI50 up to about 1.1 µM and inactive = higher.
Classes to choose from: active, inactive

Name the outcome recorded for O=C(c1ccccc1)N1OCCC1Nc1ccc(Br)cc1 (stereo not given) in the assay. inactive

Now this one: NC1CC(=O)c2sccc21 (stereo not given) inactive

Ok, now O=C1[C@H]2ON(c3ccccc3)C(c3ccc([N+](=O)[O-])cc3)[C@H]2C(=O)N1c1ccc(Cc2ccc(N3C(=O)[C@@H]4ON(c5ccccc5)C(c5ccc([N+](=O)[O-])cc5)[C@@H]4C3=O)cc2)cc1 (stereo not given in full) inactive

Also need CCOC(=O)C(Cc1cccn1C(=O)OC(C)(C)C)[N+](=O)[O-] (stereo not given) , thanks. inactive

Also `Nc1ccn([C@H]2CO[C@@H](CO)O2)c(=O)n1` , if possible. inactive

Now try COCC(=O)OC1CCn2c1nc1c2C(=O)C(C)=C(NC(C)=O)C1=N (stereo not given) . inactive

Record: O=C1CSC(c2cccc(Cl)c2)N1c1ccc(-n2c(-c3ccccc3)nc3ccccc3c2=O)cc1 (stereo not given) inactive

And what about the molecule `NC1=NCCN1CC(=O)O` ? inactive

One more molecule: `Cc1ccc(/N=N/c2c(C)nn(C(=O)CC(=O)Nc3ccc(Cl)cc3)c2C)cc1C` inactive

Please do the same for CC12CP(=O)(O)CC1C2(Cl)Cl (stereo not given) as well. inactive

Same for `Cc1ccc2c3c1O[C@H]1c4nc5ccccc5cc4C[C@@]4(O)[C@@H](C2)N(CC2CC2)CC[C@]314` inactive

And then COc1cc(C2c3[nH]c4ccccc4c3C[C@H]3COC(=O)N23)cc(OC)c1OC (stereo not given in full) , what is it? active

Would you kindly repeat that for COc1ccc(NC2CC(C)N(C(=O)c3ccccc3)O2)cc1 (stereo not given) ? inactive

Cool, now `COc1cc(/C=N/n2c(Cc3ccc(Cl)cc3)n[nH]c2=O)cc(OC)c1OC` inactive

Same for CC1OC(OC2C(OC3CCC4(C)C(CCC5(C)C4CC=C4C6CC(C)(C)CCC6(C(=O)O)CCC45C)C3(C)CO)OCC(O)C2O)C(O)C(O)C1O (stereo not given) inactive

What do we get for COc1cc2c(cc1OC)C1Cc3ccccc3CCN1CC2 (stereo not given) ? inactive

One more molecule: CC1(C)CC(=O)C2=C(C1)OC1=C(CC(C)(C)CC1=O)C2c1ccccc1Cl (stereo not given) inactive

Also need `Cc1cc(C)c2c(c1)C/C(=C\c1ccccc1C(=O)O)C2=O` , thanks. inactive

Moving on to the next molecule: `Cc1ccccc1/N=N/C(C(=O)c1ccccc1)C(=O)c1ccccc1` inactive

Similarly, `O=C(NC(=O)c1cn(CCN2CCNCC2)c(=O)[nH]c1=O)OCc1ccccc1` ? inactive

----------
test system: OVCAR-3; experiment: NCI tumour cell line growth inhibition, 48 h
The source made the active and inactive calls. Cut-off read from the data, not from the text of the source: active = GI50 up to about 1.1 µM and inactive = higher.
Kindly supply the reported GI50 values for the records listed here.

Sample `CCOC(=O)Oc1ccc2[nH]c3c(C)cc(N)c(C)c3c2c1` — what was its GI50? > 100 µM (inactive)

Entry COc1c(OC(C)C)c(OC(C)C)c2oc(=O)n3c2c1C(c1ccccc1-n1c(C)ccc1C)C=C3 (configuration not stated) please > 100 µM (inactive)

Same question, `COc1ccc(/C=C/C(=O)c2sc(-n3nc(-c4ccccc4)cc3-c3ccccc3)nc2C)cc1OC` this time 20.6 µM (inactive)

Consider next the molecule `OC(C#Cc1ccccc1)(c1ccccc1)c1ccccc1` in the same way. 26.7 µM (inactive)

Follow-up entry: `N#Cc1ccc2cc3c(cc2c1)OCO3` > 100 µM (inactive)

Same thing, different molecule: CN1C(=O)C2(C=CC(O)CC2)c2ccccc21 (configuration not stated) > 100 µM (inactive)

Okay, and `CCOC(=O)c1csc(NC(=O)CN2CCN(C)CC2)n1` ? > 100 µM (inactive)

Now consider Cc1ccc(C(=O)C(C)N)cc1C (configuration not stated) and answer again. > 100 µM (inactive)

Try the molecule O=C1N(Cc2ccccc2)C2CSCC2N1Cc1ccccc1 (configuration not stated) 10.4 µM (inactive)

Try `O=C1C=C(Nc2ccc(S(=O)(=O)Nc3ncccn3)cc2)c2ccccc2C1=O` next. 14.6 µM (inactive)

Proceed to `O=C(O)[C@@H]1C[C@@H](O)CN1C(=O)OCc1ccccc1` > 100 µM (inactive)

Follow-up item: `O=c1[nH]c2ccc(CC(=S)N3CCCCC3)cc2s1` > 100 µM (inactive)

Also, `CNC(N)NC` please. > 100 µM (inactive)

What would you report for CCC1C(NC(=O)OC)C(=O)N1[C@@H](C)c1ccccc1 (some centres not stated) ? > 100 µM (inactive)

Lookup C[C@]12CCC(O)CC1=CC[C@@H]1[C@@H]2CC[C@]2(C)C(O)[C@H](n3ccnc3)C[C@@H]12 (some centres not stated) 72.4 µM (inactive)

Here is the next molecule: `CCOC(=O)/C1=C(\C)N(Cc2ccccc2)C(=O)c2ccccc2C(=O)c2c(OC(C)=O)ccc(OC(C)=O)c21` 23.1 µM (inactive)

Another molecule to look at: `CCNCC(=O)O[C@]1(CC)C(=O)OCc2c1cc1n(c2=O)Cc2cc3ccccc3nc2-1` 2.07 µM (inactive)

# iterate: `Cc1[nH]c(=O)nc(N/N=C/c2ccc(O)cc2)c1C(=O)Nc1ccc(Cl)cc1` > 100 µM (inactive)

Now this one: CCOC(=O)C1C(=O)c2cccc(OC)c2C2COC(=O)N12 (configuration not stated) > 100 µM (inactive)

Consider next the molecule `NS(=O)(=O)OCCCCCCCOS(N)(=O)=O` in the same way. 361 µM (inactive)

Now this one: `COC(=O)NC(Nc1ccc(Cl)cc1Cl)(C(F)(F)F)C(F)(F)F` 79.6 µM (inactive)

Please do the same for `N#Cc1c(-c2ccc(Cl)cc2)cc(-c2ccc(Nc3ccnc4cc(Cl)ccc34)cc2)nc1N` as well. > 100 µM (inactive)
